Recorded LD50 by entry
assay_procedure: Toxicity, median lethal dose (LD50)
assay_conditions: in vivo, po
property_label: LD50 (mg/kg)

compound | measured_number
N=C(N)c1ccc2cc(OC(=O)c3ccc(CN)cc3)ccc2c1 | 2500
N=C(N)Nc1ccc(C(=O)Oc2ccc3cc(C(=N)N)ccc3c2)cc1 [Compound 27, 6-amidino-2-naphthyl 4-guanidinobenzoate] | 2500

----------
experimental_target: Thrombin (Homo sapiens)
assay_procedure: biochemical
assay_conditions: at 1×10^-5 M; read-out: Thrombin percentage inhibition
Method: The anti-trypsin, anti-plasmin, anti-kallikrein and anti-thrombin activities were determined according to the method of Muramatsu et al. [M. Muramatsu, T. Onishi, S. Makino, Y. Hayashi and S. Fujii, J. of Biochem., 58, 214 (1965)]. The data summarized in Table 1 are expressed in terms of molar concentration (ID50) of the test compound which inhibits 50% of the activity of each enzyme to hydrolyze TAME (tosylalginine methyl ester). […]

entry_smiles | experimental_target | inhibition at 10 µM (%)
Cc1ccc(C=CC(=O)Oc2ccc3cc(C(=N)N)ccc3c2)cc1 | Thrombin (Homo sapiens) | 22
N=C(N)c1ccc2cc(OC(=O)C=Cc3cccc(C(F)(F)F)c3)ccc2c1 | Thrombin (Homo sapiens) | 21
CCCCOc1ccc(C(=O)Oc2ccc3cc(C(=N)N)ccc3c2)cc1 | Thrombin (Homo sapiens) | 29
COc1ccc(CCC(=O)Oc2ccc3cc(C(=N)N)ccc3c2)cc1OC | Thrombin (Homo sapiens) | 17

----------
experimental_target: UniProt:P09871
Sequence (P09871 438-688 limits assumed): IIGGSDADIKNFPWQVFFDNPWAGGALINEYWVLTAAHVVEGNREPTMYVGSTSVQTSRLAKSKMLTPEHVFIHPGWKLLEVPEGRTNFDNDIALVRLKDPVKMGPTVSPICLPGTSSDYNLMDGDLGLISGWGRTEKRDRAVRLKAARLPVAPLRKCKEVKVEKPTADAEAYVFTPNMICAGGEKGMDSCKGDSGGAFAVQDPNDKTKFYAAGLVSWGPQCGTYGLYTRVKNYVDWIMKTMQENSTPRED
Sequence (P09871 16-437 partner limits assumed): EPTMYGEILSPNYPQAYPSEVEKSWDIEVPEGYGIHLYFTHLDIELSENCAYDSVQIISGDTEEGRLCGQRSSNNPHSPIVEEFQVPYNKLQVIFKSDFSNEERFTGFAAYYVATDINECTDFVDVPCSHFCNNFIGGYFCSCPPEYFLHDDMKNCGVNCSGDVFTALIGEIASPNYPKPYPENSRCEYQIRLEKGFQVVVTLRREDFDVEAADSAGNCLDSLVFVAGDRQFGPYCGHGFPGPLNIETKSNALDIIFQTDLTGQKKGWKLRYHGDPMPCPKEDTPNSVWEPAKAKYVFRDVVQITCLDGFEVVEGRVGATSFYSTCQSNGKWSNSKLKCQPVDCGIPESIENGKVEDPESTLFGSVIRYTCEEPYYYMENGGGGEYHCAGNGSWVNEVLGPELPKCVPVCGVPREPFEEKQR
assay_procedure: biochemical
assay_conditions: ATEE hydrolysis; read-out: Anti-C1 activity, C1s ID50
pIC50: −log10 of the molar value.
Recorded pIC50 by entry

molecule | value_operator | pIC50
N=C(N)c1ccc2cc(OC(=O)CCCc3ccccc3)ccc2c1 [Compound 54, 6-amidino-2-naphthyl 4-phenylbutyrate] | < | 5.00
N=C(N)Nc1ccc(CCC(=O)Oc2ccc3cc(C(=N)N)ccc3c2)cc1 | < | 5.00
COc1ccc(C(=O)Oc2ccc3cc(C(=N)N)ccc3c2)cc1 | = | 6.70
N=C(N)c1ccc2cc(OC(=O)c3ccc(N)cc3)ccc2c1 [Compound 20, 6-amidino-2-naphthyl 4-aminobenzoate] | = | 6.70
N=C(N)c1ccc2cc(OC(=O)c3ccc(CNC(=O)OCc4ccccc4)cc3)ccc2c1 | = | 6.30
N=C(N)c1ccc2cc(OC(=O)c3ccc(CN)cc3)ccc2c1 | = | 6.70
N=C(N)c1ccc2cc(OC(=O)c3ccc(O)cc3)ccc2c1 [Compound 11, 6-amidino-2-naphthyl 4-hydroxybenzoate] | = | 6.70
N=C(N)c1ccc2cc(OC(=O)Cc3ccc(Cl)cc3)ccc2c1 | < | 5.00
N=C(N)c1ccc2cc(OC(=O)c3cccc(C(F)(F)F)c3)ccc2c1 | = | 5.52
Cc1ccc(C(=O)Oc2ccc3cc(C(=N)N)ccc3c2)cc1 | = | 7.15
CSc1ccc(C(=O)Oc2ccc3cc(C(=N)N)ccc3c2)cc1 | = | 6.52
CN(C(=N)N)c1ccc(C(=O)Oc2ccc3cc(C(=N)N)ccc3c2)cc1 | = | 6.52
Cc1cccc(C(=O)Oc2ccc3cc(C(=N)N)ccc3c2)c1 [Compound 3, 6-amidino-2-naphthyl 3-methylbenzoate] | = | 5.70
N=C(N)c1ccc2cc(OC(=O)c3ccc(C=O)cc3)ccc2c1 | = | 5.52
N=C(N)c1ccc2cc(OC(=O)C=Cc3cccc(C(F)(F)F)c3)ccc2c1 | = | 5.40
N=C(N)c1ccc2cc(OC(=O)c3ccc4c(c3)OCO4)ccc2c1 | = | 6.70
CC(=O)c1ccc(C(=O)Oc2ccc3cc(C(=N)N)ccc3c2)cc1 | = | 5.52

Source of measurements: patent US4532255A
